Target: BTK (Homo sapiens, UniProt Q06187)
Sequence (Q06187 402-655 limits assumed): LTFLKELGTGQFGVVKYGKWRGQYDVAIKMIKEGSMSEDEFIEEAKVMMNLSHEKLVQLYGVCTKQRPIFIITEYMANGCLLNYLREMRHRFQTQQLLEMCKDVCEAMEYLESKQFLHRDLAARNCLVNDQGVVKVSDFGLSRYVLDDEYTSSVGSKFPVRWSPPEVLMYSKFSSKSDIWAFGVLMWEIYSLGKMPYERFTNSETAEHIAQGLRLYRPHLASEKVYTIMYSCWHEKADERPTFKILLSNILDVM
Test: biochemical
Settings: read-out: BTK inhibition (%), 0.75 uM BTK, […] probe 3l, 15 min preincubation
ASSAY ENDPOINT: inhibition at 10 µM (%)
One number for each entry, in %.

Answered cases to consult:
CCN(CC)c1ccc2cc(-c3nc4ccccc4s3)c(=O)oc2c1 -5.1
COCCCC/C(=N\OCCN)c1ccc(C(F)(F)F)cc1 -8.6
CC(C)CC(=O)Nc1n[nH]c2c1CN(C(=O)C1CCN(C)CC1)C2(C)C 17.9
CCOC(=O)CCNc1cc(N2CCc3ccccc3CC2)nc(-c2ccccn2)n1 -0.8

Here is the next item to consider.
// inhibition at 10 µM value for O=S(=O)(NCCNC/C=C/c1ccc(Br)cc1)c1cccc2cnccc12 : -22.8
